Test: Cytotoxicity against human SGC7901 cells assessed as growth inhibition after 48 hrs by MTT assay
Format: functional, cell-based
Settings: SGC-7901, 48 h
measured parameter: pIC50
The meaning of pIC50 here: minus log10 of the concentration in molar units.

Look up pIC50: "CCCCCO/N=C1/[C@H](C)C[C@@](C)(OC)[C@H](O[C@@H]2O[C@H](C)C[C@H](N(C)CCN(C)[C@H]3C[C@@H](C)O[C@@H](O[C@@H]4[C@@H](C)[C@H](O[C@H]5C[C@@](C)(OC)[C@@H](O)[C@H](C)O5)[C@@H](C)C(=O)O[C@H](CC)[C@@](C)(O)[C@H](O)[C@@H](C)/C(=N\OCCCCC)[C@H](C)C[C@@]4(C)OC)[C@@H]3O)[C@H]2O)[C@@H](C)[C@H](O[C@H]2C[C@@](C)(OC)[C@@H](O)[C@H](C)O2)[C@@H](C)C(=O)O[C@H](CC)[C@@](C)(O)[C@H](O)[C@H]1C"
4.51

Input "CC[C@H]1OC(=O)[C@H](C)[C@@H](O[C@H]2C[C@@](C)(OC)[C@@H](O)[C@H](C)O2)[C@H](C)[C@@H](O[C@@H]2O[C@H](C)C[C@H](N(C)CCN(C)[C@H]3C[C@@H](C)O[C@@H](O[C@@H]4[C@@H](C)[C@H](O[C@H]5C[C@@](C)(OC)[C@@H](O)[C@H](C)O5)[C@@H](C)C(=O)O[C@H](CC)[C@@](C)(O)[C@H](O)[C@@H](C)/C(=N\O)[C@H](C)C[C@@]4(C)O)[C@@H]3O)[C@H]2O)[C@](C)(O)C[C@@H](C)/C(=N/O)[C@H](C)[C@@H](O)[C@]1(C)O"
4.66

Also "CC[C@H]1OC(=O)[C@H](C)[C@@H](O[C@H]2C[C@@](C)(OC)[C@@H](O)[C@H](C)O2)[C@H](C)[C@@H](O[C@@H]2O[C@H](C)C[C@H](N(C)CCN(C)[C@H]3C[C@@H](C)O[C@@H](O[C@@H]4[C@@H](C)[C@H](O[C@H]5C[C@@](C)(OC)[C@@H](O)[C@H](C)O5)[C@@H](C)C(=O)O[C@H](CC)[C@@](C)(O)[C@H](O)[C@@H](C)/C(=N\O)[C@H](C)C[C@@]4(C)OC)[C@@H]3O)[C@H]2O)[C@](C)(OC)C[C@@H](C)/C(=N/O)[C@H](C)[C@@H](O)[C@]1(C)O" , if possible.
5.11

* * *

Parameter: IC50. Scope: all listed entries.
Assay: Cytotoxicity against human HT1080 cells assessed as growth inhibition after 48 hrs by MTT assay
Assay type: functional, cell-based
Settings: HT-1080, 48 h

The following compounds have reported results that may help.
{"columns": ["chemical structure", "measured parameter", "recorded result"],
 "data": [
  ["CC[C@H]1OC(=O)[C@H](C)[C@@H](O[C@H]2C[C@@](C)(OC)[C@@H](O)[C@H](C)O2)[C@H](C)[C@@H](O[C@@H]2O[C@H](C)C[C@H](N(C)C(=O)CN(C)[C@H]3C[C@@H](C)O[C@@H](O[C@@H]4[C@@H](C)[C@H](O[C@H]5C[C@@](C)(OC)[C@@H](O)[C@H](C)O5)[C@@H](C)C(=O)O[C@H](CC)[C@@](C)(O)[C@H](O)[C@@H](C)C(=O)[C@H](C)C[C@@]4(C)O)[C@@H]3O)[C@H]2O)[C@](C)(OC)C[C@@H](C)C(=O)[C@H](C)[C@@H](O)[C@]1(C)O", "IC50", "> 100 µM"],
  ["CC[C@H]1OC(=O)[C@H](C)[C@@H](O[C@H]2C[C@@](C)(OC)[C@@H](O)[C@H](C)O2)[C@H](C)[C@@H](O[C@@H]2O[C@H](C)C[C@H](N(C)CCN(C)[C@H]3C[C@@H](C)O[C@@H](O[C@@H]4[C@@H](C)[C@H](O[C@H]5C[C@@](C)(OC)[C@@H](O)[C@H](C)O5)[C@@H](C)C(=O)O[C@H](CC)[C@@](C)(O)[C@H](O)[C@@H](C)[C@@H](O)[C@H](C)C[C@@]4(C)O)[C@@H]3O)[C@H]2O)[C@](C)(O)C[C@@H](C)[C@H](O)[C@H](C)[C@@H](O)[C@]1(C)O", "IC50", "> 100 µM"]
]}

Please look at the following compound next.
Quick one: IC50 for "CC[C@H]1OC(=O)[C@H](C)[C@@H](O[C@H]2C[C@@](C)(OC)[C@@H](O)[C@H](C)O2)[C@H](C)[C@@H](O[C@@H]2O[C@H](C)C[C@H](N(C)CCN(C)[C@H]3C[C@@H](C)O[C@@H](O[C@@H]4[C@@H](C)[C@H](O[C@H]5C[C@@](C)(OC)[C@@H](O)[C@H](C)O5)[C@@H](C)C(=O)O[C@H](CC)[C@@](C)(O)[C@H](O)[C@@H](C)/C(=N\OCc5ccccc5)[C@H](C)C[C@@]4(C)O)[C@@H]3O)[C@H]2O)[C@](C)(O)C[C@@H](C)/C(=N/OCOCCOC)[C@H](C)[C@@H](O)[C@]1(C)O" ?
> 100 µM

The reported numbers originate from ChEMBL document CHEMBL3217717.
